Below, each entry is listed with its recorded melting point.

Check out these entries, answers already filled in.
>  <compound>
COCCCNc1ccc(S(N)(=O)=O)cn1

>  <measured value>
129 to 132 °C

$$$$
>  <compound>
O=C(c1ccc2c(c1)OC(F)(F)C(=O)N2)N1CCOCC1

>  <measured value>
214 to 217 °C

$$$$
>  <compound>
Cc1cccc(C(=O)Nc2c(NC(=O)CCl)ccc3c2C(=O)c2ccccc2C3=O)c1

>  <measured value>
202 to 203 °C

$$$$
>  <compound>
CCC(O)CNC(=O)c1n[nH]cc1NC(=O)c1ccccn1 (stereo not given)

>  <measured value>
202 to 203 °C

$$$$
>  <compound>
CC(=Cc1ccccc1)c1ncccc1C(N)=O

>  <measured value>
150 to 155 °C

$$$$
>  <compound>
COC(=O)C1(C)CC(C(=O)Nc2ccc(Cl)cc2)=NN1c1ccc(Cl)cc1 (stereo not given)

>  <measured value>
138 to 140 °C

$$$$

Complete the entry with melting point for `COc1ccc(C(C)C)cc1-c1cc(-c2nnnn2CCc2ccccc2)c(O)cc1O`
206 to 209 °C

Please report the measured melting point for `O=C(c1ccc(O)c(Cc2ccc(=O)[nH]n2)c1)c1c(Cl)cc(Cl)cc1Cl`
258 °C

Consider the compound `COC(=O)c1ccc(-c2ccc(-c3cn([C@H]4CN5CCC4CC5)nn3)s2)cc1F` . State its measured melting point.
250 °C

Tell me measured melting point for CC(CCCl)C(=O)Nc1cc(C(C)(C)C)no1 (stereo not given) please.
135 to 137 °C

The measured values listed here are drawn from a melting point compilation (Tetko et al.; mined from patent text by program, amines drawn as free bases though some values may be those of a salt).
